Measured values drawn from patent EP1382597A2 for this set.

# Measured on: ER (Homo sapiens, UniProt P03372)
# Construct: expressed in transfected cells; host or cells: CV-1 cells, transient transfection, with MTV-ERE5-LUC reporter
# Sequence (P03372 whole entry): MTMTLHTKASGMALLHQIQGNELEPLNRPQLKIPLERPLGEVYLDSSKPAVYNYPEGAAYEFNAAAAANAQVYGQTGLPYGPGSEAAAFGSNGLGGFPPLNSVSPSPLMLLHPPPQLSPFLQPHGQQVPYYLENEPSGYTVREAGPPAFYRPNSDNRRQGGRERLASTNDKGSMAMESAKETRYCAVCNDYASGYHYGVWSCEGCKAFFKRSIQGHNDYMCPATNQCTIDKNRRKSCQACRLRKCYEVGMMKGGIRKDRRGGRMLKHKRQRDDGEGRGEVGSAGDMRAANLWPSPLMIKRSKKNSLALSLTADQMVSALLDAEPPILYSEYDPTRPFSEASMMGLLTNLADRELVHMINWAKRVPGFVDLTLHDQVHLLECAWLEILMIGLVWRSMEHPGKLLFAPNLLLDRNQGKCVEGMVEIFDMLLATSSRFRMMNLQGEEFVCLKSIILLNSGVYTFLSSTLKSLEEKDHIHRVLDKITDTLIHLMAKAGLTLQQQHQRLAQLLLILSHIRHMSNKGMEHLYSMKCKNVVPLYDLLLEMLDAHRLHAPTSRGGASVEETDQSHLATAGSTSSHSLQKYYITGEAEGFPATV
# Measurement description: Co-transfection assay, ER antagonist activity
# Type: cell-based
# Measurement parameters: CV-1 cells; percent maximal inhibition, estradiol at its EC50
Threshold rule: ER Antagonist CV-1 Cells Efficacy (%) greater than or equal to 80% is Condition met; below that, Condition not met.

-- ask Say whether CCCCN(C)C(=O)CCCCCCCCCC[C@@H]1Cc2cc(O)ccc2[C@H]2CC[C@]3(C)[C@@H](O)CC[C@H]3[C@H]12 [ICI 164, reference compound] shows ER Antagonist CV-1 Cells Efficacy (%) of 80% or more.
-- reply Condition met

-- ask Lookup CC1=CC(C)(C)Nc2ccc3c(c21)C(c1cccc(C(F)(F)F)c1)Oc1ccccc1-3 (racemic)
-- reply Condition not met

-- ask Lookup CC1=CC(C)(C)Nc2ccc3c(c21)C(c1cccc(F)c1)Oc1ccccc1-3 (racemic)
-- reply Condition met

Would you kindly look at the next entry?
-- ask Say whether COc1cccc(C2Oc3ccccc3-c3ccc4c(c32)C(C)=CC(C)(C)N4)c1 (racemic) shows ER Antagonist CV-1 Cells Efficacy (%) of 80% or more.
-- reply Condition met

* * *

Please go through the items and note down their pIC50.
# Measured on: MR (Homo sapiens)
# Construct: expressed in transfected cells; host or cells: CV-1 cells, transient transfection
# Sequence (P08235 whole entry): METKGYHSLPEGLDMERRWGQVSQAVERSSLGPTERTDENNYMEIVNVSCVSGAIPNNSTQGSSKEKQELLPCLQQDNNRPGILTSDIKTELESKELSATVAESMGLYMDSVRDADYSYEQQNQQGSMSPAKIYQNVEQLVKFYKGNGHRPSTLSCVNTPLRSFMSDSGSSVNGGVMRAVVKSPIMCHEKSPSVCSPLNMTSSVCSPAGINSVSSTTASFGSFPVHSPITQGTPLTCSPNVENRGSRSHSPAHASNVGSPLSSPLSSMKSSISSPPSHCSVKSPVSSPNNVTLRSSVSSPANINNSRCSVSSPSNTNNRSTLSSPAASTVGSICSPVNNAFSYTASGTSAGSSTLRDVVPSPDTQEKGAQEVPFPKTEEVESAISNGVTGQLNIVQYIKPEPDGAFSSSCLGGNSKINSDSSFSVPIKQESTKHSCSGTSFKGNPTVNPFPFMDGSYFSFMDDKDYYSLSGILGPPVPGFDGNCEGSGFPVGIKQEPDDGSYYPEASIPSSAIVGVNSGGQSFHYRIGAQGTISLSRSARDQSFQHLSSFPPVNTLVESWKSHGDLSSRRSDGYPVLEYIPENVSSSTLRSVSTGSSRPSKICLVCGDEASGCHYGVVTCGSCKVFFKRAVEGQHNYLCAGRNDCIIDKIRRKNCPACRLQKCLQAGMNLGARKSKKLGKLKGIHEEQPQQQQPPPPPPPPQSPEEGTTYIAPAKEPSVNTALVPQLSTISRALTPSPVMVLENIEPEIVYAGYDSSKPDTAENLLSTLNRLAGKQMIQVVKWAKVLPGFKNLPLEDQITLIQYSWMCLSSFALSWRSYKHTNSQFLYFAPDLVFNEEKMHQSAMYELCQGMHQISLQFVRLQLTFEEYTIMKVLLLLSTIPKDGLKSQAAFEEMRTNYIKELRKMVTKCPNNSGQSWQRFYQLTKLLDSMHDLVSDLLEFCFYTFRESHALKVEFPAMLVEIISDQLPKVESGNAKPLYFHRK
# Measurement description: Co-transfection assay, MR antagonist activity
# Assay type: cell-based
Give bare numbers, as −log10 of the molar value.

-- ask Requested field: pIC50. Item: CC1=CC(C)(C)Nc2ccc3c(c21)C(c1ccc(Cl)cc1)Oc1ccccc1-3 (racemic)
-- reply 5.84

---
-- ask Requested field: pIC50. Item: CC1=CC(C)(C)Nc2ccc(-c3cccc(C#N)c3)cc21
-- reply 5.72

* * *

# Measured on: GR (Homo sapiens)
# Construct: expressed in transfected cells; host or cells: CV-1 cells, transient transfection
# Sequence (P04150 1-777): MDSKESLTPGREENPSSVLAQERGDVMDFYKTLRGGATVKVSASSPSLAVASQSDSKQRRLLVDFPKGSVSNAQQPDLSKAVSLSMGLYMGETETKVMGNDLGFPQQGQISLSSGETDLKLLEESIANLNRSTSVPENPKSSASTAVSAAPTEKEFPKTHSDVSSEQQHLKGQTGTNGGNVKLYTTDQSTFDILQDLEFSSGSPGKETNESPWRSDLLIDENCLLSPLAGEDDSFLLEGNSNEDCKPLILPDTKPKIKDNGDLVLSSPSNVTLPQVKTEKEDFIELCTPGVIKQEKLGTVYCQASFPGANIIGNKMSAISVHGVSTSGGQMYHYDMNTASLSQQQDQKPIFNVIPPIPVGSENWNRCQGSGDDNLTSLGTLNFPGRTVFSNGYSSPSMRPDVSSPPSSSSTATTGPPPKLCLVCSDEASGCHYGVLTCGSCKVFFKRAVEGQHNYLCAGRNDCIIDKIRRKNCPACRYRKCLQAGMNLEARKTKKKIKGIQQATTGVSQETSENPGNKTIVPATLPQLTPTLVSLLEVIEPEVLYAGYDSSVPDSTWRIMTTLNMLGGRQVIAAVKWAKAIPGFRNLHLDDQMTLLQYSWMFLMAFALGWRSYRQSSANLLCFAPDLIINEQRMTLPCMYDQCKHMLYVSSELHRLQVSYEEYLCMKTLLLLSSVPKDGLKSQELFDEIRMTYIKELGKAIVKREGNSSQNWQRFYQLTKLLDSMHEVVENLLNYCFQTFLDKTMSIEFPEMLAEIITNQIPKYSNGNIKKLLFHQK
# Measurement description: Co-transfection assay, GR antagonist activity
# Format: cell-based
# Measurement parameters: CV-1, read-out: GR Antagonist CV-1 Cells Efficacy (%)
Value kind: Emax

-- ask Checklist item: Emax tested on GR (Homo sapiens), entry CC1=CC(C)(C)Nc2ccc3c(c21)C(c1cccc(C(F)(F)F)c1)Oc1ccccc1-3 (racemic) [Compound 195] , value?
-- reply 96%

-- ask Lookup CC1=CC(C)(C)Nc2ccc3c(c21)C(c1ccc(C)cc1)Oc1ccccc1-3 (racemic) [Compound 167]
-- reply 96%

-- ask Lookup CC1=CC(C)(C)Nc2ccc3c(c21)C(c1ccccc1)Oc1ccccc1-3 (racemic) [Compound 161]
-- reply 97%

-- ask Lookup C=C1CC(C)(C)Nc2ccc3c(c21)C(c1cccc(F)c1)Oc1ccccc1-3 (racemic) [Compound 192]
-- reply 81%

-- ask Lookup CC#C[C@]1(O)CC[C@H]2[C@@H]3CCC4=CC(=O)CCC4=C3[C@@H](c3ccc(N(C)C)cc3)C[C@@]21C [RU486, reference compound]
-- reply 100%

Lab note: each compound below needs its Emax filled in.
1. CC(=O)S[C@@H]1CC2=CC(=O)CC[C@]2(C)[C@H]2CC[C@@]3(C)[C@@H](CC[C@@]34CCC(=O)O4)[C@H]12 [Spir, reference compound]
2. CC1=CC(C)(C)Nc2ccc3c(c21)C(c1ccsc1)Oc1ccccc1-3 (racemic) [Compound 170]

-- reply
["80%", "94%"]

* * *

Please go through the items and note down their Emax.
# Measured on: human PR-B (Homo sapiens)
# Construct: expressed in transfected cells; host or cells: CV-1 cells (African green monkey kidney fibroblasts), transient transfection
# Sequence (P06401 1-933): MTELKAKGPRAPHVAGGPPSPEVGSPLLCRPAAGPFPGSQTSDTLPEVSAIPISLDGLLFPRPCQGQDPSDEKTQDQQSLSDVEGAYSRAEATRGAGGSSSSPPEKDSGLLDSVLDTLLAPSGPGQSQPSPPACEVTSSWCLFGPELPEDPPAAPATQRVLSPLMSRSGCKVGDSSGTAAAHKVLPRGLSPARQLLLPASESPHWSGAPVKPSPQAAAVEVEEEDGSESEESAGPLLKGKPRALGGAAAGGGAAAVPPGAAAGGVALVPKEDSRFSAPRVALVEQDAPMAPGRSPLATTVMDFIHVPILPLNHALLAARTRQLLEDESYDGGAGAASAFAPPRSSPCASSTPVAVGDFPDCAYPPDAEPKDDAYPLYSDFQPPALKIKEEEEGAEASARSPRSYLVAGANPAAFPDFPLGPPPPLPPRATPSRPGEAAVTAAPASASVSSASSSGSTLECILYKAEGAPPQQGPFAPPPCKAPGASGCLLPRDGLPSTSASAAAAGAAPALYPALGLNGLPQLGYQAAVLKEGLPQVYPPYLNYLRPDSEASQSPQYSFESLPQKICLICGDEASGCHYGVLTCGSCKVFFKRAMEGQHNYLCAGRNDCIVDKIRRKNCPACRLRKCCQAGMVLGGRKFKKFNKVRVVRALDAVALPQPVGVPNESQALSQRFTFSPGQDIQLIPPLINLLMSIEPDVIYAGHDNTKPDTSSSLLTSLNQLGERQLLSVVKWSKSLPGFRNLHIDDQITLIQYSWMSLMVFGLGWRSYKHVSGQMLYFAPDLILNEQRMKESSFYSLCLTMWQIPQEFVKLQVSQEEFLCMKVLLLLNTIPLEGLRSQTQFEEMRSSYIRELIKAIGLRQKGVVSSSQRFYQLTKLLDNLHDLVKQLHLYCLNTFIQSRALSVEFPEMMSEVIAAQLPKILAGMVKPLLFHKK
# Measurement description: Co-transfection assay, PR agonist activity;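 note: CV-1 cells (African green monkey kidney) co-transfected with receptor plasmid and hormone-responsive firefly luciferase reporter, agonism read as compound-dependent rise in luciferase signal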
# Type: cell-based
# Measurement parameters: CV-1, read-out: PR Agonist CV-1 Cells Efficacy (%)
Answers are plain numbers, in %.

-- ask Requested field: Emax. Item: CC1=CC(C)(C)Nc2ccc3c(c21)C(c1ccc(Cl)cc1)Oc1ccccc1-3 (racemic)
-- reply 77

Lab note: each compound below needs its Emax filled in.
1. CC1=CC(C)(C)Nc2ccc(-c3nn(C)cc3Br)cc21
2. CC1=CC(C)(C)Nc2ccc3c(c21)/C(=C/c1ccc(F)cc1)Oc1ccccc1-3

-- reply
39
105

Lab note: each compound below needs its Emax filled in.
1. CC1C(=O)C(C)(C)Nc2ccc3c(c21)/C(=C/c1cccc(F)c1)Oc1ccccc1-3 (racemic)
2. CC1=CC(C)(C)Nc2ccc3c(c21)C(C)Oc1ccc(Cl)cc1-3 (racemic)

-- reply
1. 133
2. 138

* * *

Please go through the items and note down their Emax.
# Measured on: AR (Homo sapiens, UniProt P10275)
# Construct: expressed in transfected cells; host or cells: CV-1 cells, transient transfection
# Sequence (P10275 whole entry): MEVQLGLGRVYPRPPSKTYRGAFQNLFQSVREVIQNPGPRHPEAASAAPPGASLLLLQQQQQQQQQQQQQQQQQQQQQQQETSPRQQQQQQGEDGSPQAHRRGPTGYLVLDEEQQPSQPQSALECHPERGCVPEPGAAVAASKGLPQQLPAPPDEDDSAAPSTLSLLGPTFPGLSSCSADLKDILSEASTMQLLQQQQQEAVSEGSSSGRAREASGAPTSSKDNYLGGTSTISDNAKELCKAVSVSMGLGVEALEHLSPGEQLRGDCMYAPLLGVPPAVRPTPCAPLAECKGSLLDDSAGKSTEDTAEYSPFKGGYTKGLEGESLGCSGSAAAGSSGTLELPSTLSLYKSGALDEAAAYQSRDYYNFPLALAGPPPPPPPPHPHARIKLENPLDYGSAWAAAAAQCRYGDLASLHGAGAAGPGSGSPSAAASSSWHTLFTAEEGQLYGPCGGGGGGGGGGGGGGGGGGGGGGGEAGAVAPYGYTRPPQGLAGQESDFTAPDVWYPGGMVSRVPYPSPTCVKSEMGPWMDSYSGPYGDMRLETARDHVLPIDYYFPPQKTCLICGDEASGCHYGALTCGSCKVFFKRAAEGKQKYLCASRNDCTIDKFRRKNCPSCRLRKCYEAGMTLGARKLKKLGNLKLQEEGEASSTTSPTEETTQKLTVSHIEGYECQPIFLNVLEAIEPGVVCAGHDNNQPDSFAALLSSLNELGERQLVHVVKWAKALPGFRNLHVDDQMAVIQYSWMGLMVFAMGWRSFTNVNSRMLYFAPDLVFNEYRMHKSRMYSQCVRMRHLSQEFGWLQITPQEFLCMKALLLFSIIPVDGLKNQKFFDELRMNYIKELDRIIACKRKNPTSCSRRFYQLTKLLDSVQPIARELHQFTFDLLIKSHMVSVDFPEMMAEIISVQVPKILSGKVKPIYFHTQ
# Measurement description: Co-transfection assay, AR antagonist activity
# Format: cell-based
# Measurement parameters: CV-1, read-out: AR Antagonist CV-1 Cells Efficacy (%)

-- ask Requested field: Emax. Item: CC1=CC(C)(C)N(C)c2cc3oc(=O)cc(C(F)(F)F)c3cc21
-- reply 78%

-- ask Lookup CC1C(=O)C(C)(C)Nc2cc3[nH]c(=O)cc(C(F)(F)F)c3cc21 (racemic)
-- reply 63%

-- ask Lookup CC1=CC(C)(C)Nc2cc3oc(=O)cc(C(F)(F)C(F)(F)F)c3cc21
-- reply 91%

-- ask Lookup CC1CC(C)(C)Nc2cc3oc(=O)cc(-c4ccoc4)c3cc21 (racemic)
-- reply 89%

-- ask Lookup CCC1CCNc2cc3oc(=O)cc(C(F)(F)F)c3cc21 (racemic)
-- reply < 20%

// switching to the query compound
-- ask Requested field: Emax. Item: CC1=CC(C)(C)Nc2cc3oc(=O)cc(C(F)(F)F)c3cc21
-- reply < 20%
